test-description: qHTS for Inhibitors of human tyrosyl-DNA phosphodiesterase 1 (TDP1): qHTS in cells in absence of CPT; further: nearly all actives have a fitted effect of over 55% in size
conditions-used: DT40 Tdp1-/- hTDP1 cells, no CPT, ATP luminescence, 48 h
Screen size: about 420,000 compounds; about 64,000 (15%) were called active. Not shown: some 27% with an inconclusive outcome. The call rests on the fitted dose curve; in most records, active means well fitted inhibition curve with a large enough effect; inconclusive means small, poorly fitted or top-dose-only effect; inactive means flat fitted curve, though single readings scatter. Only a sample is shown.
Select the matching outcome among active, inactive

Some solved cases for reference:
compound	discrete-label
CCc1nnc(NC(=O)CCC(=O)NCc2ccccc2OC)s1	inactive
CCNC(=O)C1(C)CCCN1C(=O)c1ccc(N(C)C)cc1 (stereo unspecified)	inactive
O=C(Nc1ccc(F)cc1)Nc1nnc([C@H]2C[C@H](O)[C@@H](CO)O2)s1	inactive
CCN(CC)CCNC(=O)Cn1ncc2c3ccccc3n(Cc3ccccc3C)c2c1=O	active

What classification did CCCCNC(=O)C1(O)c2ccccc2NC(=O)N1c1ccc(Cl)cc1 (stereo unspecified) end up with in this test?
inactive

Ok, now COc1ccc(OC)c(Nc2nc(-c3ccc(O)c(O)c3)cs2)c1
active

Ok, now O=C(O)CSCC(=O)Nc1ccc(C(F)(F)F)cc1
inactive

Ok, now O=C(NC1CCCCC1)C1CC(=O)N(CCc2ccccc2)C1 (stereo unspecified)
inactive

Ok, now O=S(=O)(NC1CC2CCC1C2)c1ccc(Cl)cc1 (stereo unspecified)
inactive

Ok, now CC(C)NC(=O)C1(C)CCCCCN1C(=O)c1ccc(-c2ccccc2)cc1 (stereo unspecified)
active

Ok, now CC1(C)C(C=C(Cl)Cl)C1C(=O)NC(O)C(=O)c1ccccc1 (stereo unspecified)
inactive

###

test-description: qHTS for Inhibitors of human tyrosyl-DNA phosphodiesterase 1 (TDP1): qHTS in cells in absence of CPT; further: nearly all actives have a fitted effect of over 55% in size
conditions-used: DT40 Tdp1-/- hTDP1 cells, no CPT, ATP luminescence, 48 h
Hit rate of the full screen: of about 420,000 compounds, about 64,000 (15%) were called active. Roughly 27% stayed inconclusive and do not appear here. Calls come from the whole dose curve; as a rule, active = well fitted inhibition curve with a large enough effect; inconclusive = small, poorly fitted or top-dose-only effect; inactive = flat fitted curve, though single readings scatter. A selection follows.
Select the matching outcome among active, inactive

compound	discrete-label
O=C(O)C#Cc1cccc2ccccc12	inactive
CCNC(=S)Nc1cccc(Cl)c1C	inactive
Cc1cc(Cl)ccc1NC(=S)NCCCN1CCCC1=O	inactive

What classification did CC(C)Oc1ccc(Oc2ccc(C(F)(F)F)cn2)cc1 end up with in this test?
inactive

Ok, now CCCc1cc(=O)[nH]c(SCC(=O)c2c(N)n(CC(C)C)c(=O)n(C)c2=O)n1
inactive

Ok, now Cc1ccc(-n2c(=O)cc(N3CCN(Cc4ccccc4)CC3)[nH]c2=O)cc1
inactive

Ok, now Cc1cc(F)ccc1NC(=S)NCCc1ccccc1
inactive

Ok, now Cc1ccc(NC(=S)NCCc2ccc(Cl)cc2)c(C)c1
active

###

test-description: qHTS for Inhibitors of human tyrosyl-DNA phosphodiesterase 1 (TDP1): qHTS in cells in absence of CPT; further: nearly all actives have a fitted effect of over 55% in size
conditions-used: DT40 Tdp1-/- hTDP1 cells, no CPT, ATP luminescence, 48 h
In all, about 420,000 compounds went through this assay and about 64,000 (15%) were called active. About 27% were inconclusive and are not listed. Calls follow the shape of the dose curve; as a rule, active = well fitted inhibition curve with a large enough effect; inconclusive = small, poorly fitted or top-dose-only effect; inactive = flat fitted curve, though single readings scatter. The list is a sample of the results.
Select the matching outcome among Y for active, N for inactive

Some solved cases for reference:
compound	discrete-label
COc1ccc(C(=O)Nc2ccccc2C(=O)N/N=C/c2ccc(O)c(OC)c2)cc1	Y
COc1cc(/C=N/NC(=O)CCc2n[nH]c(=O)[nH]c2=O)ccc1O	N
COc1cc(/C=N/NC(=O)c2ccc(N3CCCC3=O)cc2)ccc1O	Y
CCCC[C@@H]1CN=C(N)N1CCCC	Y

What classification did CCCCN1C(N)=NC[C@@H]1Cc1ccccc1 end up with in this test?
Y

Ok, now O=C(Nc1ccccc1C(=O)NCC1CCCO1)c1ccccc1F (stereo unspecified)
N

###

test-description: qHTS for Inhibitors of human tyrosyl-DNA phosphodiesterase 1 (TDP1): qHTS in cells in absence of CPT; further: nearly all actives have a fitted effect of over 55% in size
conditions-used: DT40 Tdp1-/- hTDP1 cells, no CPT, ATP luminescence, 48 h
In all, about 420,000 compounds went through this assay and about 64,000 (15%) were called active. Roughly 27% stayed inconclusive and do not appear here. Calls follow the shape of the dose curve; as a rule, active = well fitted inhibition curve with a large enough effect; inconclusive = small, poorly fitted or top-dose-only effect; inactive = flat fitted curve, though single readings scatter. The list is a sample of the results.
Select the matching outcome among active, inactive

What classification did CC(C)(C(=O)N1CCC1(C)C(=O)NS(=O)(=O)c1ccc(Br)cc1)c1ccccc1 (stereo unspecified) end up with in this test?
inactive

Ok, now O=S(=O)(c1ccc(NC(=S)NN=C(C2CC2)C2CC2)cc1)N1CCOCC1
inactive

###

test-description: qHTS for Inhibitors of human tyrosyl-DNA phosphodiesterase 1 (TDP1): qHTS in cells in absence of CPT; further: nearly all actives have a fitted effect of over 55% in size
conditions-used: DT40 Tdp1-/- hTDP1 cells, no CPT, ATP luminescence, 48 h
Out of some 420,000 compounds screened, about 64,000 (15%) were called active. About 27% were inconclusive and are not listed. The call rests on the fitted dose curve; in most records, active means well fitted inhibition curve with a large enough effect; inconclusive means small, poorly fitted or top-dose-only effect; inactive means flat fitted curve, though single readings scatter. The list is a sample of the results.
Select the matching outcome among active, inactive

Some solved cases for reference:
compound	discrete-label
O=C(Nc1cccc(NC(=O)c2ccc(Br)cc2)c1)c1ccccc1	inactive
Cc1ccc(NS(=O)(=O)c2c(C)[nH]c(C)c2C(=O)N2CCCCC2)c(C)c1	inactive
CN(CC(=O)NC1CCCC1)S(=O)(=O)c1cnc[nH]1	inactive

Moving on to the next compound.
What classification did Cc1cc(C(=O)CC#N)c(C)n1-c1c(C)n(C)n(-c2ccccc2)c1=O end up with in this test?
inactive

###

test-description: qHTS for Inhibitors of human tyrosyl-DNA phosphodiesterase 1 (TDP1): qHTS in cells in absence of CPT; further: nearly all actives have a fitted effect of over 55% in size; further: potency means the concentration at half of the fitted maximal effect
conditions-used: DT40 Tdp1-/- hTDP1 cells, no CPT, ATP luminescence, 48 h
Hit rate of the full screen: of about 420,000 compounds, about 64,000 (15%) were called active. Inconclusive results (about 27%) are left out. Only a sample is shown.
parameter-measured: Potency

molecule	reported-result
COc1ccc(OC)c(NC(=O)CSc2nc(N)c(-c3ccccc3)c(=O)[nH]2)c1	inactive
CC(=O)Nc1ccc(OCC(=O)NCc2ccc(C)cc2)cc1	inactive
COc1ccc(C)cc1NC(=O)CSc1cccc[n+]1[O-]	inactive
CCCCC(=O)N/N=C(\C)CC(=O)Nc1cc(Cl)ccc1OC	inactive

Which Potency is reported for this molecule? CC(C)c1ccc(OCC(O)CN2CCN(c3ccccn3)CC2)cc1 (centres undefined)
10.3 µM (active)

Ok, now O=C(CN1CCc2cc3c(cc2C1)OCCCO3)Nc1ccccc1
25.9 µM (active)

Ok, now CC(C)CNS(=O)(=O)c1ccc(OCC(=O)Nc2ccc3c(c2)OCO3)c(Cl)c1
inactive

Ok, now O=C(NCc1ccco1)c1cccc(-c2ccc3nncn3c2)c1
inactive

Ok, now CCC1=Nc2cc(C(=O)NCC(C)c3ccccc3)ccc2Sc2ccc(C)cc21 (centres undefined)
23.1 µM (active)

Ok, now COC(=O)[C@@H]1CC(O)CN1C(=O)C12CC3CC(CC(C3)C1)C2 (some centres undefined)
inactive

Ok, now CCc1nnc(NC(=O)CSc2nc3ccccc3c(=O)n2CCCOC)s1
inactive

Ok, now CCCC1=Nc2cc(C(=O)NCc3ccco3)ccc2Sc2ccccc21
3.66 µM (active)

Ok, now CCC1=Nc2cc(C(=O)NCCCOC(C)C)ccc2Sc2ccc(C)cc21
0.517 µM (active)

Ok, now COc1ccc(S(=O)(=O)N2CCOCC2)cc1NC(=O)CSc1ncnc2ccccc12
inactive

Ok, now O=C1NCC(Nc2ccccc2)C(=O)N1 (centres undefined)
inactive

Ok, now O=C(CN1CCOCC1)Nc1ccccc1
inactive

Ok, now C/C(CC(=O)NCc1ccc(Cl)cc1)=N\NC(=O)COc1ccc(C)cc1Br
3.26 µM (active)

Ok, now O=C(NCCCN1CCOCC1)c1cc(-c2cccc(O)c2)on1
inactive

Ok, now Cc1ccc(C(=O)NC(C)c2ccccc2)cc1Br (centres undefined)
inactive

Ok, now CC(C)OCCCNC(=O)CNC(=O)c1cccs1
inactive

Ok, now COc1ccccc1CNC(=O)C1CCN(S(=O)(=O)c2ccc3c(c2)OCCO3)CC1
inactive

###

test-description: qHTS for Inhibitors of human tyrosyl-DNA phosphodiesterase 1 (TDP1): qHTS in cells in absence of CPT; further: nearly all actives have a fitted effect of over 55% in size; further: potency means the concentration at half of the fitted maximal effect
conditions-used: DT40 Tdp1-/- hTDP1 cells, no CPT, ATP luminescence, 48 h
The whole screen tested about 420,000 compounds, of which about 64,000 (15%) were called active. About 27% were inconclusive and are not listed. Not all results are given here.
parameter-measured: Potency

Worked examples follow.
compound	Potency
O=C(COC(=O)c1ccc(F)cc1)Nc1nc2ccc([N+](=O)[O-])cc2s1	inactive
CSc1nc2ccc(S(=O)(=O)N3CCc4ccccc43)cc2s1	23.1 µM (active)
O=C(Nc1nc2ccc([N+](=O)[O-])cc2s1)c1ccncc1	inactive
Cc1noc(C)c1COc1ccccc1C(=O)N(C)CC(=O)Nc1cccc(F)c1	inactive
CC1Cc2cc(/C(O)=C3\C(=O)C(=O)N(Cc4cccnc4)C3c3ccccc3F)ccc2O1 (centres undefined)	inactive

Which Potency is reported for this compound? Cc1ccc(CNC(=O)CCCNC(=O)c2ccc(Cl)cc2)n1C
inactive

Ok, now CCOC(=O)[C@H]1CCC[C@@H](NS(=O)(=O)c2ccc(NC(C)=O)cc2)C1
inactive

Ok, now CN1CCN(C(=O)CCc2ncc(C(F)(F)F)cc2Cl)CC1
inactive
